tested on: wild-type HCT-116 cells; assay: Cell proliferation (MTS), wild-type HCT-116; format: cell-based; conditions: Homo sapiens, 240 h; wild-type HCT-116, 10 days with compound, MTS reading; read-out: IC50 HCT116 WT
I'd be grateful if you could share measured pIC50 for these entries.
Note on units: pIC50 is unitless, being -log10 of a concentration expressed in mol/L.

Query string: # return pIC50 of CCn1cc(C#Cc2ccc3c(c2)OCC3N(C)C(=O)c2ccc3nc(N)c4cnn(C)c4c3c2)cn1 (stereo not drawn) [Compound 20] (system: wild-type HCT-116 cells)
Result string: 6.02

Query string: # return pIC50 of Cc1nn(C)cc1C#Cc1ccc2c(c1)OCC2N(C)C(=O)c1cc2c(cc1F)nc(N)c1cnn(C)c12 (stereo not drawn) [Compound 25] (system: wild-type HCT-116 cells)
Result string: 6.33

Query string: # return pIC50 of CN(C(=O)c1cc2c(cc1Cl)nc(N)c1cnn(C)c12)[C@@H]1COc2cc(C#Cc3cnn(C(F)F)c3)ccc21 [Compound 67A] (system: wild-type HCT-116 cells)
Result string: 7.07

Query string: # return pIC50 of CN1CC=C(C#Cc2ccc3c(c2)OCC3N(C)C(=O)c2ccc3nc(N)c4cnn(C)c4c3c2)CC1 (stereo not drawn) [Compound 6] (system: wild-type HCT-116 cells)
Result string: 5.56

Query string: # return pIC50 of CN1CCn2c(C#Cc3ccc4c(c3)OC[C@H]4N(C)C(=O)c3cc4c(cc3F)nc(N)c3cnn(C)c34)cnc2C1 [Compound 46A] (system: wild-type HCT-116 cells)
Result string: 6.80

Query string: # return pIC50 of CN(C(=O)c1cc2c(cc1F)nc(N)c1cnn(C)c12)C1COCc2cc(C#Cc3cnn(C4CC4)c3)ccc21 (stereo not drawn) [Compound 85] (system: wild-type HCT-116 cells)
Result string: 6.78

Query string: # return pIC50 of CN(C(=O)c1ccc2nc(N)c3cnn(C)c3c2c1)C1COc2cc(C#Cc3cn(C)nc3Cl)ccc21 (stereo not drawn) [Compound 34] (system: wild-type HCT-116 cells)
Result string: 5.94

Query string: # return pIC50 of CN(C(=O)c1cc2c(cc1F)nc(N)c1cnn(C)c12)C1COc2cc(C#Cc3ccnn3C)ccc21 (stereo not drawn) [Compound 36] (system: wild-type HCT-116 cells)
Result string: 5.76

Query string: # return pIC50 of CN(C(=O)c1cc2c3c(c(N)nc2cc1F)COC3)[C@@H]1COc2cc(C#Cc3cnc4n3CCCC4)ccc21 [Compound 80A] (system: wild-type HCT-116 cells)
Result string: 5.82

Query string: # return pIC50 of Cc1ccc(C#Cc2ccc3c(c2)OC[C@H]3N(C)C(=O)c2cc3c(cc2Cl)nc(N)c2cnn(C)c23)cn1 [Compound 55A] (system: wild-type HCT-116 cells)
Result string: 6.66

Query string: # return pIC50 of Cn1cc(C#Cc2ccc3c(c2)OCC3N(C(=O)c2ccc3nc(N)c4cnn(C)c4c3c2)C2CC2)cn1 (stereo not drawn) [Compound 2] (system: wild-type HCT-116 cells)
Result string: 5.99

Query string: # return pIC50 of CCn1cc(C#Cc2ccc3c(c2)OCC3N(C)C(=O)c2cc3c(cc2F)nc(N)c2cnn(C)c23)cn1 (stereo not drawn) [Compound 17] (system: wild-type HCT-116 cells)
Result string: 6.39

Query string: # return pIC50 of CN(C(=O)c1cc2c(cc1F)nc(N)c1cnn(C)c12)[C@@H]1COc2cc(C#Cc3ccn(C)n3)ccc21 [Compound 21A] (system: wild-type HCT-116 cells)
Result string: 6.63

Query string: # return pIC50 of Cc1nn(C)cc1C#Cc1ccc2c(c1)OC[C@H]2N(C)C(=O)c1ccc2nc(N)c3cnn(C)c3c2c1 [Compound 49A] (system: wild-type HCT-116 cells)
Result string: 6.42

Query string: # return pIC50 of CN(C(=O)c1cc2c(cc1F)nc(N)c1cnn(C)c12)[C@@H]1COc2cc(C#Cc3cnc4n3CCCC4)ccc21 [Compound 66A] (system: wild-type HCT-116 cells)
Result string: 6.52
